protocolNotes: Caco-2 permeability assay
Format: in vitro ADME
particulars: human, Caco-2, pH 7.4; apical to basolateral, 10 µM, 2 h, without Pgp inhibitor; read-out: Papp (A–B)
Below, each entry is listed with its recorded Papp A→B at 2 h, 10 µM.
Unit ×10⁻⁶ cm/s implied. Number only.

>  <compound>
CN(CCOc1ccc(CC2SC(=O)NC2=O)cc1)c1ccccn1 (centres unmarked)

>  <readoutName>
Papp A→B at 2 h, 10 µM

>  <measurement>
14.5

$$$$

Query block: Suppose we examine the compound CCc1ccc(CCOc2ccc(CC3SC(=O)NC3=O)cc2)nc1 (centres unmarked) ; what Papp A→B at 2 h, 10 µM value has been reported?
Result block: 11.8

###

assaySystem: human PPARγ (Homo sapiens, UniProt P37231)
Sequence (P37231 1-505): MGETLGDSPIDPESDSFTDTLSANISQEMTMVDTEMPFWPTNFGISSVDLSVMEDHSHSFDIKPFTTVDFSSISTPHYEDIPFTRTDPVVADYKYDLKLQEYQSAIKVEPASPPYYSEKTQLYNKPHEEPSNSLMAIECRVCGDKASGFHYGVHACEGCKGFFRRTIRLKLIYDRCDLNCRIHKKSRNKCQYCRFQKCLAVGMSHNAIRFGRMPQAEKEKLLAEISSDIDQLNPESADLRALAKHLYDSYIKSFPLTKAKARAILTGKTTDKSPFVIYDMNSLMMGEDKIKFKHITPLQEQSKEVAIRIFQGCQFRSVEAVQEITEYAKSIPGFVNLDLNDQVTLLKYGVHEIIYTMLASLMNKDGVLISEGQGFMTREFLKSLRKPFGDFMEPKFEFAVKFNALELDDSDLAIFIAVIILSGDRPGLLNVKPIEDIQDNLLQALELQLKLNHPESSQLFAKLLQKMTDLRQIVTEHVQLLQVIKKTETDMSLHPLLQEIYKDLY
protocolNotes: human PPARγ nuclear reporter assay (luciferase)
particulars: reporter cells incubated 24 h, luminescence
readoutName: EC50 (nM)
Unit nM implied. Number only.

Query block: # value lookup — system human PPARγ (Homo sapiens, UniProt P37231), readout EC50, item Cc1nn(CCOc2ccc(CC3SC(=O)NC3=O)cc2)c(=O)c2ccccc12 (stereo not shown)
Result block: 602
